- TEST TARGET: ULK2 (Homo sapiens, UniProt Q8IYT8)
- Sequence (Q8IYT8 whole entry): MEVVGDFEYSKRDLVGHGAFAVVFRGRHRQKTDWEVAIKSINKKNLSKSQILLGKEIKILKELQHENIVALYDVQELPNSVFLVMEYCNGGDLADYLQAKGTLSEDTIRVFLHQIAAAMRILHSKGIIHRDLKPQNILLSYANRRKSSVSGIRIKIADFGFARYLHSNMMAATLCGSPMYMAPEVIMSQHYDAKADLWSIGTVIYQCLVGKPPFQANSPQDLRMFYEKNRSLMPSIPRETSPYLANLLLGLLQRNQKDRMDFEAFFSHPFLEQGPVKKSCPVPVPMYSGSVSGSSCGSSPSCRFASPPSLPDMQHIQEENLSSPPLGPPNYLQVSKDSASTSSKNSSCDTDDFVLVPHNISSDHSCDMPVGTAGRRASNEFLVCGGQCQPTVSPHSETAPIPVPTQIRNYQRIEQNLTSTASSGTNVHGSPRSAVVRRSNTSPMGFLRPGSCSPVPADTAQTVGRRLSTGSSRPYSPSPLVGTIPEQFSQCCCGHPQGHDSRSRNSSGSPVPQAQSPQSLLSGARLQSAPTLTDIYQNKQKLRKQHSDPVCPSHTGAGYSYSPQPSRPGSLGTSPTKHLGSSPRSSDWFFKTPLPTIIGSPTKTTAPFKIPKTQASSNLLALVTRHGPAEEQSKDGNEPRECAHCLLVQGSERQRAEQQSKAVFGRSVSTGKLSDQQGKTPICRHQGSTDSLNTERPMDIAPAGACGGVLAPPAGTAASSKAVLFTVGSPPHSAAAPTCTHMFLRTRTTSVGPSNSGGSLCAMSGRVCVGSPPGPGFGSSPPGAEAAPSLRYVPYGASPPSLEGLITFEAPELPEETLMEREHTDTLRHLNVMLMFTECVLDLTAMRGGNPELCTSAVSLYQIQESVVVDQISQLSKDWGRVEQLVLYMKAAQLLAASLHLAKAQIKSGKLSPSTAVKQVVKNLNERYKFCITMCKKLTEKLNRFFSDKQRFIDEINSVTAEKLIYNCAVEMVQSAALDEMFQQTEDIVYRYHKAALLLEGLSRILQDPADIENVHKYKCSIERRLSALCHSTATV
- ASSAY INFO: biochemical
OBSERVABLE: IC50

Form field - read-out: IC50; system: ULK2 (Homo sapiens, UniProt Q8IYT8); submitted item: CNC(=O)c1ccccc1Nc1nc(Nc2cc3c(cc2C)OCO3)ncc1Cl > 3000 nM

Form: Entry = CNC(=O)c1ccccc1Nc1nc(Nc2ccc(N3CCOCC3)cc2OC)ncc1C(F)(F)F | System = ULK2 (Homo sapiens, UniProt Q8IYT8) | IC50 = ____ 1340 nM

---

- TEST TARGET: kinase domain of ULK1 (Homo sapiens, UniProt O75385)
- Sequence (O75385 1-283 limits assumed): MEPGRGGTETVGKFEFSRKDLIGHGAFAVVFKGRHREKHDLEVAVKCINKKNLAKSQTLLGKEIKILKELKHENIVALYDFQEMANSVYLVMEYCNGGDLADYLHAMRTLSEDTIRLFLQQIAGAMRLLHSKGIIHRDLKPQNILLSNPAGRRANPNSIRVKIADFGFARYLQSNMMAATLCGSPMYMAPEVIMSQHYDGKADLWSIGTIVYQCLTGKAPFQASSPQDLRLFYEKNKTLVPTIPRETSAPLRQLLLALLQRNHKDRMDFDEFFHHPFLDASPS
- MEASUREMENT PARAMETERS: binder
Catalogue of ULK1 PTS (ºC) values
Reply with just the number (in °C).

[
  {
    "SMI": "CNC(=O)c1ccccc1Nc1nc(Nc2ccc3c(c2)OCCO3)ncc1Cl",
    "TEST TARGET": "kinase domain of ULK1 (Homo sapiens, UniProt O75385)",
    "UNIT INFO": "°C",
    "ULK1 PTS (ºC)": 6.05
  },
  {
    "SMI": "CNC(=O)c1ccccc1Nc1nc(Nc2cc(N3CCOCC3)cc(N3CCOCC3)c2)ncc1C(F)(F)F",
    "TEST TARGET": "kinase domain of ULK1 (Homo sapiens, UniProt O75385)",
    "UNIT INFO": "°C",
    "ULK1 PTS (ºC)": 17.28
  },
  {
    "SMI": "CNC(=O)c1ccccc1Nc1nc(Nc2ccc(N3CCOCC3)cc2OC)ncc1Br",
    "TEST TARGET": "kinase domain of ULK1 (Homo sapiens, UniProt O75385)",
    "UNIT INFO": "°C",
    "ULK1 PTS (ºC)": 5.60
  },
  {
    "SMI": "CNC(=O)c1ccccc1Nc1nc(Nc2cc(OC)c(OC)c(OC)c2)ncc1Cl",
    "TEST TARGET": "kinase domain of ULK1 (Homo sapiens, UniProt O75385)",
    "UNIT INFO": "°C",
    "ULK1 PTS (ºC)": 14.25
  }
]

Let's switch to this molecule now.
Can you share its ULK1 PTS (ºC)? I mean this molecule: CNC(=O)c1ccccc1Nc1nc(Nc2cc3c(cc2C)OCO3)ncc1Cl 3.37
